System: SK-OV-3 ovarian
procedure_details: NCI-60 one-dose screen, 48 h
settings: 10 µM unless noted
Description: Growth inhibition of the SK-OV-3 human tumor cell line is measured as a screen for anti-cancer activity. Cells are grown in 96 well plates and exposed to the test compound for 48 hours. Compounds are tested at a single concentration, which is 10^-5 M for most compounds. The reported endpoint is percent growth (GI% or GIPRCNT), where numbers from 0 - 100% represent growth inhibition, and numbers from -100% - 0 represent cell death. For example, a value of 40 represents 60% growth inhibition. […]
Compounds without any hit were thinned out: in the full panel of roughly 83,000, 20% have a hit. Activity calls are given as the source filed them. Rule for the calls: active = growth percent below 10; inactive = the rest.
Outcome field: choose from active, inactive

{"columns": ["smiles_text", "label_class"],
 "data": [
  ["Oc1cccc(CCc2ccc(Oc3cc(CCc4cccc(O)c4)cc(O)c3O)cc2)c1", "inactive"],
  ["Cc1cc2cc3ccc(N(C)C)cc3nc2cc1N", "active"],
  ["C[C@H]1[C@H](C)CC[C@]2(C(=O)NCC#CCN3CCN(C)CC3)CC[C@]3(C)C(=CC[C@@H]4[C@@]5(C)Cc6c([nH]c7ccccc67)C(C)(C)[C@@H]5CC[C@]43C)[C@H]12", "inactive"]
]}

--- query ---
// query // return assay outcome for `COc1ccc(/C=C2\Oc3cc(OCCCCCN4CCCCC4)ccc3C2=O)cc1OC`
// result inactive
